# Assay system: Protein farnesyltransferase (Homo sapiens, UniProt P49354+P49356)
# Protocol notes: Inhibition of rate of incorporation of [3H]FPP into recombinant Ras-CVIM by human farnesyltransferase.
Measured endpoint: IC50
Record the result as number plus unit.

N#Cc1ccc(Cn2ccnc2)cc1Oc1cccc(Cc2ccccc2)c1
230 nM

Value of IC50 reported for the molecule N#Cc1ccc(Cn2ccnc2)cc1Oc1ccccc1 is 230 nM

IC50 for N#Cc1ccc(Cn2ccnc2)cc1OCc1ccccc1 is 1500 nM

Noted for C#Cc1cccc(Oc2cc(Cn3ccnc3)ccc2C#N)c1 : its IC50 reads 27 nM

// sample N#Cc1ccc(Cn2ccnc2)cc1Oc1ccc(Cl)cc1Cl , its IC50 was 8 nM

Sample CCC1(c2cccc(Oc3cc(Cn4ccnc4)ccc3C#N)c2)CCCCN(C)C1=O (stereo unspecified) ; IC50 observed: 2.9 nM
